- Test system: CAKI-1 renal
- assayProtocol: NCI tumour cell line growth inhibition, 48 h
Where a SMILES comes first, the peptide text is derived from it. [ ]: non-standard residue; d: D form. The star is where a group is joined. Dolaproine = CO[C@@H]([C@@H]1CCCN1)[C@@H](C)C(=O)O; Dil = CC[C@H](C)[C@H](NC)[C@@H](CC(=O)O)OC; X2 = C[C@@H](N*)[C@@H](O)c1ccccc1; NMeV = CN[C@H](C(=O)O)C(C)C

| compound | TGI |
| --- | --- |
| S=C(S)NCCNC(=S)S.[Cu+2] | > 100 µM |
| CC[C@H](C)[C@@H]([C@@H](CC(=O)N1CCC[C@H]1[C@H](OC)[C@@H](C)C(=O)N[C@H](C)[C@@H](O)c1ccccc1)OC)N(C)C(=O)[C@@H](NC(=O)[C@@H](NC)C(C)C)C(C)C (H-[NMeV]V[Dil][Dolaproine]-X2) | > 94.8 µM |
| O=[N+]([O-])c1ccc2c(c1)c1nn2CCCCOc2nn(c3ccc([N+](=O)[O-])cc23)CCCCO1 | > 100 µM |
| O=C(Nc1ccc2[nH]c3ccccc3c2c1)c1ccccc1Cl | > 100 µM |

###

- Tested on: SF-268 CNS
- assayProtocol: NCI tumour cell line growth inhibition, 48 h
reportedMetric: log10(TGI) (log10 of the value in µM)

| smilesString | log10(TGI) |
| --- | --- |
| COc1cc(-c2nccn2-c2ccc3ccccc3c2)cc(OC)c1OC | 1.28 |
| COC1=C(C)C(=O)C2=C(C1=O)[C@@H]1[C@@H]3Cc4c(OC(=O)CO)c(C)c(OC)c(O)c4[C@H](CNC(=O)C(C)=O)N3[C@@H](C#N)[C@H](C2)N1C | -0.68 |
| O=C(C[n+]1cccc2cc(Cl)ccc21)c1ccc2c(c1)CCCC2 | 0.52 |
| CC1(C)Cc2c(cnn2-c2ccc(C(F)(F)F)cc2)-c2nc(-c3ccc(O)cc3)[nH]c21 | 1.45 |
| CC[N+](CC)=c1cc2oc3cc(N(C)C)ccc3nc-2cc1C | 0.54 |

###

- Tested on: HT29 colon
- assayProtocol: NCI tumour cell line growth inhibition, 48 h; in the data active means GI50 below about 0.43 µM; inactive means the rest
Where a SMILES comes first, the peptide text is derived from it. [ ]: non-standard residue; d: D form. The star is where a group is joined. Dolaproine = CO[C@@H]([C@@H]1CCCN1)[C@@H](C)C(=O)O; Dil = CC[C@H](C)[C@H](NC)[C@@H](CC(=O)O)OC; X2 = C[C@@H](N*)[C@@H](O)c1ccccc1; NMeV = CN[C@H](C(=O)O)C(C)C
Outcomes: label 1 = active, label 0 = inactive

| compound | studySystem | qualitativeLabel |
| --- | --- | --- |
| COc1cccc(C2=C(c3cn(C)c4ccc(Cl)cc34)C(=O)NC2=O)c1 | HT29 colon | label 0 |
| CC[N+](CC)=c1cc2oc3cc(N(C)C)ccc3nc-2cc1C | HT29 colon | label 0 |
| C=CC(=O)N1CCN(CCCn2c(=O)c(-c3c(Cl)c(OC)cc(OC)c3Cl)cc3cnc(NC)nc32)CC1 | HT29 colon | label 0 |
| COc1cc(Nc2ccnc(NCCNc3ccnc4cc(Cl)ccc34)n2)cc(OC)c1 | HT29 colon | label 0 |
| C1C[OH+]CC[OH+]CC[OH+]CC[OH+]CC[OH+]CC[OH+]1.[Cl-].[V] | HT29 colon | label 0 |
| COc1cccc2[nH]c3c4c(c5c(c3c12)C(=O)N(CN1CCN(C)CC1)C5=O)CCC4 | HT29 colon | label 0 |
| CCC[CH2][Sn]1([CH2]CCC)[O]CC(CN2CCCCC2)[O]1 (stereo not given) | HT29 colon | label 0 |
| Oc1c(Br)cc(Br)c2ccc(Cn3cc(-c4ccc(C(F)(F)F)cc4)nn3)nc12 | HT29 colon | label 0 |
| O=C(C[n+]1cccc2cc(Cl)ccc21)c1ccc2c(c1)CCCC2 | HT29 colon | label 0 |
| CC[C@H](C)[C@H](NC(=O)c1ccccn1)C(=O)N(C)[C@H](C[C@@H](OC(C)=O)c1nc(C(=O)N[C@@H](Cc2ccccc2)C[C@H](C)C(=O)OC)cs1)C(C)C | HT29 colon | label 0 |
| CC[C@H](C)[C@@H]([C@@H](CC(=O)N1CCC[C@H]1[C@H](OC)[C@@H](C)C(=O)N[C@H](C)[C@@H](O)c1ccccc1)OC)N(C)C(=O)[C@@H](NC(=O)[C@@H](NC)C(C)C)C(C)C (H-[NMeV]V[Dil][Dolaproine]-X2) | HT29 colon | label 1 |
| O=C1/C=C/[C@@H](O)[C@@H]2C[C@@H](O)C[C@H]2/C=C/CCC[C@H](CCOCc2ccccc2)O1 | HT29 colon | label 1 |
| CCCCC(CCCCCC(CCCC)C1NC(C)Cc2cc(OC)c(OC)cc21)C1NC(C)Cc2cc(OC)c(OC)cc21 (stereo not given) | HT29 colon | label 1 |
| O=C(Nc1ncc(Cc2ccccc2)s1)c1sc2ccccc2c1Cl | HT29 colon | label 0 |
| CN[C@@H](C)C(=O)N[C@H]1CCS[C@H]2CC(C)(C)[C@@H](C(=O)N[C@H]3c4ccccc4C[C@H]3OCC#CC#CCO[C@@H]3Cc4ccccc4[C@@H]3NC(=O)[C@H]3N4C(=O)[C@@H](NC(=O)[C@H](C)NC)CCS[C@H]4CC3(C)C)N2C1=O | HT29 colon | label 0 |

###

- Test system: HCT-15 colon
- assayProtocol: NCI tumour cell line growth inhibition, 48 h
Where a SMILES comes first, the peptide text is derived from it. [ ]: non-standard residue; d: D form.
Measured TGI by item
reportedMetric: TGI

| compound | testResult |
| --- | --- |
| COc1cc(/C=C(\NC(=O)c2ccccc2)c2nc3[nH]c(=S)[nH]c(=O)c3[nH]2)cc(OC)c1OC | > 100 µM |
| CCCCCCc1cc2c(C)c(C)c(=O)oc2cc1OCCCOc1cc2oc(=O)c(C)c(C)c2cc1CCCCCC | > 100 µM |
| CC[N+](CC)=c1cc2oc3cc(N(C)C)ccc3nc-2cc1C | > 100 µM |
| COc1cc(-c2nccn2-c2ccc3ccccc3c2)cc(OC)c1OC | 12.6 µM |
| COc1nc(N)c(N=O)c(OCc2ccccc2)n1 | > 10 µM |
| COC(=O)C1C(OS(=O)(=O)O)CCC2CN3CCc4c([nH]c5ccccc45)C3CC21 (centres undefined) | > 100 µM |
| Nc1cccc2nnccc12 | > 100 µM |
| C=C(CBr)CCCOCc1ccccc1 | 68.2 µM |
| CN(C)CCCNc1ccnc2cccc([N+](=O)[O-])c12 | 39.9 µM |
| CC(C)(C)COC1C2(OCCO2)C2CCC1(C)C2(C)C (centres undefined) | 50 µM |
| c1ccc2c(c1)c1c(n2CCOCCCN2CCCCC2)CCCC1 | 27.6 µM |
| NC(N)=NCCC[C@H]1NC(=O)[C@@H](CCC(=O)O)NC(=O)[C@@H](CC(=O)O)NC(=O)[C@@H](CCC(=O)O)NC(=O)[C@H](Cc2c[nH]c3ccccc23)NC1=O (cyclo(W[dE][dD][dE][dR])) | > 7.5 µM |
| COC(=O)C12C3C4(C(=O)OC)C1C1(C(=O)OC)C2C3(C(=O)OC)C41C(=O)N(C(C)C)C(C)C (centres undefined) | > 100 µM |
| O=C(Nc1ncc(Cc2ccccc2)s1)c1sc2ccccc2c1Cl | > 100 µM |
| CN(C)CCn1c(=O)c2ccc(NCCCN(C)CCCNc3ccc4c(=O)n(CCN(C)C)c(=O)n5c6ccccc6c(=O)c3c45)c3c(=O)c4ccccc4n(c1=O)c23 | 0.421 µM |
| COc1cc(C=C(c2ccc(N(C)C)cc2)c2ccc(N(C)C)cc2)c2ccccc2c1OC | > 100 µM |
| O=c1[nH]nc(-c2ccccc2)n1/N=C\CC/C=N\n1c(-c2ccccc2)n[nH]c1=O | 49.9 µM |
| Cc1ncc([N+](=O)[O-])n1CCn1ccnc1[N+](=O)[O-] | > 100 µM |
| C/C=C(/C)C(=O)O[C@H]1CCN2CC=C(COC(=O)[C@@](O)([C@H](C)OC)C(C)(C)O)[C@H]12 | > 100 µM |
| COc1cccc2[nH]c3c4c(c5c(c3c12)C(=O)N(CN1CCN(C)CC1)C5=O)CCC4 | 25.9 µM |
| CC1CCC2C(C)(C)CC3(C)CCC1C23O (centres undefined) | 30.6 µM |
| CC(C)=CCNc1ncnc2c1c(C#N)cn2C1OC(CO)C(O)C1O (centres undefined) | > 100 µM |
| O=C1/C(=C/c2ccco2)N=C(c2ccccc2)N1c1ccc(S(=O)(=O)Nc2nccs2)cc1 | 94.5 µM |
| O=C(/C=C/c1ccc2ccccc2c1)NCc1ccc(C(=O)NCc2ccccc2)cc1 | > 100 µM |
| CCCCC(CCCCCC(CCCC)C1NC(C)Cc2cc(OC)c(OC)cc21)C1NC(C)Cc2cc(OC)c(OC)cc21 (centres undefined) | 2.76 µM |
| CCCC[C@H](NC(=O)[C@H]1CCCCN1C)C(=O)N(C)[C@H](C[C@@H](OC(C)=O)c1nc(C(=O)N[C@@H](Cc2ccccc2)C[C@H](C)C(=O)OCC)cs1)C(C)C | 5.73 µM |
| CC(C)(C)OC(=O)NCCC1SC2C=CC1C2 (centres undefined) | > 100 µM |
| CC#CC(O)(C(=O)OC1CCC2CCC1N2C)C1CCCC1 (centres undefined) | > 100 µM |
| Cc1cc2c(O)c(c1)CN(Cc1ccccc1)Cc1cc(C)cc(c1O)CN(Cc1ccccc1)Cc1cc(C)cc(c1O)CN(Cc1ccccc1)C2 | > 100 µM |
| CCc1n[nH]c(=O)n1/N=C/c1ccc(/C=N/n2c(CC)n[nH]c2=O)cc1 | > 100 µM |
| COc1cc(/C=C/C(=O)c2ccc(Nc3nc(NCCO)nc(N4CCOCC4)n3)cc2)cc(OC)c1OC | 4.4 µM |
| Nc1ncnc2c1ncc(=O)n2C1CC(O)C(CO)O1 (centres undefined) | > 100 µM |
| NNC1=Nc2ccc(Cl)cc2C(=S)N2CSCC12 (centres undefined) | > 100 µM |
| c1cc[n+](C2c3ccccc3C([n+]3ccccc3)c3ccccc32)cc1 (centres undefined) | > 100 µM |
| O=C1/C(=C/c2ccccc2)CN(C(=O)CCN2CCC(=NO)CC2)C/C1=C\c1ccccc1 | 3.27 µM |
| COc1ccccc1N1C(=O)CSC1c1c[nH]c2ccccc12 (centres undefined) | > 100 µM |
| O=[N+]([O-])c1ccc2c(c1)c1nn2CCCCOc2nn(c3ccc([N+](=O)[O-])cc23)CCCCO1 | > 100 µM |
| NC(N)=NN=C(c1ccccc1)c1ccccc1 | > 100 µM |
| O=c1[nH]c(=O)n(COCCOCc2ccccc2)cc1Nc1ccccc1 | > 100 µM |
